assay: yeast display, Sf9 membrane polyspecificity reagent, FACS + sequencing; frameworks hold sequencing errors

| macromolecule_sequence | polyreactivity (PSR sort gate) |
| --- | --- |
| QDQLVESGGFLVQAGGSLRLSCAASGRTFSYYDMGWYRQAPGKERELVAAISSGGSTNYADSVKARFTISRENAKNTFYLQMNSLKPEDTGVSYCATSCIWGYGRVRWVTYYYWGQGTQVTVSS | low polyreactivity |
| QVQLVESGGGLVQAGGSLRLSCAASGSTFTPYAMGWYRQAPGKERELVAAITWRGGSTYYADSVKGRFTISRDNAKNTVYLQMNSLKPEDTAVYYCAAEDYLYFFYAYGYWGQGTQVTVSS | high polyreactivity |
| QVQLVESGGGLVQAGGSLRLSCAASGSTLRYYAMGWYRQAPGKEREWVAAISTGGSTYYADSVKGRFTISRDNAKKTVYLQMHSLKPEDTAVYYCAAEPWANTPGEAGSPFDYWGQGTQVTVSS | low polyreactivity |
| QVQLVESGGGLVQAGGSLRISCAASGFIFGPNAMGWYRQAPGKERELVAAITYSGGSTYYADSVKGRFTISRDNAKNTVYLQMNSLKPEDTAVYYCAADLYTLRYGYRYEYWGQGTQVTVSS | high polyreactivity |
| QVQLVESGGGLVQAGGSLRLSCAASGITFYGYTIGWYRQAPGKERELVATITRGGSTYYADSVKGRFTISLDNAKNTVYLQMNSLKPEDTAGYYCAAESQYDYGVEFDYWGQGTQVTVSS | low polyreactivity |
| QVQLVESGGGLVQAGGSLRLSCAASGSIFHGYAMGWYRRAPGKERELVAAITYSGGRTYYADSVKGRFTISRDNAKNTVYLQMNSLKPEDTAVYYCAALTRRVKKYDYWGQGTQVTVSS | high polyreactivity |
| QVQLVESGGGLVQAGGSLRLSCAASGRIFQRYTMGWYRQAPGKEREFVAAITYSGGSTHYADSVKRRFTISRDNAKYTVYLQMNSLKPEDTAVYSCNARTSVLHDYWGQGTQVTVSS | low polyreactivity |
| QVQLVESGGGLVQAGGSLRLSCAASGRTFYYYAMGWYRQAPGKERELVATITKSSGSTSYADSVKGRFTISRDNAKNTVYLQMNSLKPEDTAVYYCAKVFRSGGVYRYDYWGQGTQVTVSS | high polyreactivity |
| QVQLVESGGGLVQAGGSLRLSCAASVRIYPYYDRGWYRQAPGKDRELVASTNYADSVKGRFTISRDNAKNTVYLQMNSLKPEDTAVYYCNKRIYGWGGSRYDYWGQGTQVTVSS | low polyreactivity |
| QVQLVESGGGLVQPRGSLSLSCAASGYIFDYYDMGWYRPAPGKERELVAAISSSGGTTYYADSVKGRFTISRDNGKNTVYLQMNSLKPEDTAVYYCAAVAVLPRSDYWGQGTQVTVSS | high polyreactivity |
| QVQLVESGGGLVQAGGSLRLSCAASGITFAGYTMGWYRQAPGKERELVAAISWRTGSTYYADSVKGRFTISRDTAKNTVYLQMNSLKPEDTAVYYCAARVPSPYVATYYYWGQGTQVTVSS | high polyreactivity |
| QDQLVESGGGLVQAGGSLRLSCAAYGRIFRANVMGWYRQAPGKERELVAAINWSGGSTYYADSVKGRFTISRDIAKNTVYLQMNSLKPEDTAVYYCAAAYKWFGEGRFYYWGQGTQVTVSS | high polyreactivity |
| QVQLVESGGGLVQAGGSLRLSCAASGITFSGNAMGWYRPATGKERELVAGISRRGGSTYYADSVKGRFTISRDNAKNTVYLEMNSLKPEDTAVYYCARQFRRYYYAGYRYDYWGQGTQVTVSS | high polyreactivity |
| QVQLVESGGGLVQAGGSLRLSCAASGRIFTGNARGWYRQAPGKERELVAGISTSGGSTYYADSVKGRFTISRDNAKNTVYLQMTSLTPEDTAVYYCAAAYVHYVYKYDYWGQGTQVTVSS | high polyreactivity |
| QVQLVESGGGLVQAGGSLRLRCAASGRTFYKNTMGWYRQAPGKERELVATISQRGGATYYADSVKGRFTISRDNAKNTVYLQMTSLKPEDTAVYYCNARKYTQSIHYDYWGQGTQVTVSS | high polyreactivity |
| QVQLVESGGGLVQAGGSLRLSCAASGFTFYYYAMGWYRQAPGKERELVASISWRGGSTYYADSVKGRFTISRDNAKNTVYLQMNSLKPEDTAVFYCAAQKRGSPGYRRDYWGQGTQVTVSS | high polyreactivity |
| QVQRVESGGGLVQAGGSLRLSCAASGRIFGGYAMGWYRQAPGKERELVAGITIGGRTNYADSVKGRFTISRDNAKNTVYLQMNSLKPEDTAVYYCNTDLTGLDAEYDYWGQGTQLTVSS | low polyreactivity |
| QVQLVESVGGFVQAGGSLRLSSAASGFIFRSYAMGSYRQAPGKERELVAVISRRGVNTHYADSVKGRFTISRDYAKYTVYLQMNSLKPEDTAVYDCAKGLTALGDYWGQGSQVTVSS | high polyreactivity |
| QVQLVESGGGLVQAGGSLRLSCAASGLTFEYNAMGWYRQAPGKERELVATISNGGITSYADSVKGRFTISRDNAKNTVYLQMNSLKPEDTAVYYCAASYADSPTTDQLWLEYDSWGQGTQVTVSS | low polyreactivity |
| QVQLVESGGGLVQAGGSLRLSCAASGRIFYYNTMGWYRQAPGKERELVAAITTNGGSTYYADSVKGRFTISRDNAKNTVYLQMNSLKPLDTAVYYCKRDRYPYYYAYNYWGQGTQVTVSS | low polyreactivity |
| QVQLVESGGGLVQAGGSLRLSCAAYGRIFGPYASGWYIQAPGKERELVAAITLSGGGTYADSVKGRFTISRDNAKNTVYLQMNSLKPEDTAVYYCAADSYRLLNSDTGEFEYNYWGQGSQVTVSS | low polyreactivity |

* * *

experiment: yeast display, Sf9 membrane polyspecificity reagent, FACS + sequencing; frameworks hold sequencing errors
result_type: polyreactivity (PSR sort gate)

| macromolecule_sequence | result_type | result |
| --- | --- | --- |
| QVQLVESGAGLVQAGGSLRLSCAASGSILDEYAMGWYRQPPGKERELVAAISSSGTSTYYADSVKGRFTISRDNAKNTVYLQMNSLKPEDTAVYYCARVKQHTSHRVPGDDYWGQGTQLTVSS | polyreactivity (PSR sort gate) | low polyreactivity |
| QDQLVESGGGLVQAGGSLRLSCAASGRNFELYAMGWYRPAPRKERELVATISGSGGSTYYADSVKGRFTISRDNAKNTVYLQMNSLKPEDTAVFYCAKNAYGYYYSRSDDWGQGTQVTVSS | polyreactivity (PSR sort gate) | low polyreactivity |
| QVQLEESGGGLVQAGGSLRLSCAASGSTFDFNAMGWYRQVPGKERELVAAITSGGSTNYADSVKGRFTISRDNAKNTVYLQMNSLKPEDTAVYYCAARPARGDSQGGYVRPWCYDSWGQGTQVTGSS | polyreactivity (PSR sort gate) | low polyreactivity |
| QVQLVESGGGLVQAGGSLRLSCAASGSIFRYYAMGWYRQAPGKERELVAAISNRGSSTNYADSVKGRFTISRDNAKNTVYLQMNSLKPEDTAVYYCAARVRYPGLSGNMYYWGQGTQVTVSS | polyreactivity (PSR sort gate) | high polyreactivity |
| QVQLVESGAGLVQARGSLRLSCAASGIILYVNAMGWYRQAPGKERELVAAISWGGGSTYYADSVKGRFTISRDNAKNNVYLQMNSLKPEDTAVYYCAAEFWSGYPTYTYDFWGQGTQVTVSS | polyreactivity (PSR sort gate) | low polyreactivity |
| QVQLVESGGALVQAGGSLRLSCAASGSIFWPNAMGWYRPAPGKERELVAAISWGTGSTYYADSVKGRFTISRDNAKNTVYLQMNSLKPEDTAVYYCAADGAYLDPYYDYWGQGTQVTVSS | polyreactivity (PSR sort gate) | low polyreactivity |
| QVQLVESGGGLVQAGGSLRLSCAASGSIFSGNAMGWYRPAPGKGRELVAGSSRRGGRTYYADSVKGRFTISRDNAKNTVYIPMNSLKPEDPAVYYCNKDVFGDTREYDYWGQGTQVTVSS | polyreactivity (PSR sort gate) | high polyreactivity |
| QVQLQESGGGMVQAGGSLRLSCAASGSIFADVQMGWYRQAPGKVRELVASINFRGTTTYYADSVKGRFTISRDNAKNTVYLQMSSLKPEDTEVYYCAVGRSEGGDFAYWGQGTHVTVSS | polyreactivity (PSR sort gate) | low polyreactivity |
| QVQLVESGGGLVQAGGSLRLSCAASGFIFGGYAMGWYRQAPGKERELVAAISRSGGSTYYADSVKGRFTISRDNGKNTLNLKMNSLKREDTAVYYCNAVPRRQGFNYWGQGTQVTVSS | polyreactivity (PSR sort gate) | high polyreactivity |
| QVQLVESGGGLVQAGGSLRLSCAASGLIFSWYDMGWYRQAPGKERELVAAITTDGDDTYYADSVKGRFTISRDNAKNTVYLQMNSLKPEDTAVYYCAADSELAIRYPDRDYDSWGQGTQVTVSS | polyreactivity (PSR sort gate) | low polyreactivity |
| QDQLVESGGGLVQARVSLRLSCAASGLIFRRYAMGWYRQAPGKEREFVAAITVSGGRTYYADSVKGRFTISRDNAKNTVYLQMNSLKQEDTAVYYCDAHGYGDNRNKYFYWGLGTQVTVSS | polyreactivity (PSR sort gate) | high polyreactivity |
